Tested on: Botrytis cinerea
Assay: Control test of cucumber gray mold (sprayed young cucumber seedlings)
Assay type: in vivo
Conditions: 96 h, 25 ppm by mass spray, four days after inoculation
Experimental: Then, the drug liquid was sprayed onto young cucumber seedlings cultivated in a nursery pot (variety “Jihai”-based, cotyledon stage), and then air-dried. […] They were left still in a moist room at 20° C. Four days after inoculation, leaves of the young cucumber seedlings were visually observed, and the control value was calculated from the lesion area ratio in accordance with the following equation. [formula]
QUANTITY_MEASURED: pest or weed control at 25 ppm

query_smiles=COC(=O)N(Cc1ccc(C)cc1C)NC(=O)c1ccncc1Oc1ccccc1 recorded_result="≥ 75%"
query_smiles=Cc1ccc(CN(NC(=O)c2cc(C)nnc2Oc2cccc(C3CC3)c2F)C(=O)OCC(F)F)c(C)c1 recorded_result="≥ 75%"
query_smiles=CCc1cncc(Oc2cccc(C3CC3)c2F)c1C(=O)NN(Cc1ccc(OC)cc1C)C(=O)OC recorded_result="≥ 75%"

Exam item: Item `COC(=O)N(Cc1ccc(C)cc1C)NC(=O)c1ccncc1Oc1cccc(Cl)c1F` has what recorded pest or weed control at 25 ppm?
Marked response: ≥ 75%

Exam item: Same question, `COC(=O)N(Cc1ccc2c(c1)CCC2)NC(=O)c1cc(C)ncc1Oc1cccc(C2CC2)c1F` this time
Marked response: ≥ 75%

Exam item: Another: `COC(=O)N(Cc1ccc(C)cc1C)NC(=O)c1cc(C)ncc1Oc1cccc(C2CC2)c1F`
Marked response: ≥ 75%

Exam item: Moving on to `COC(=O)N(Cc1ccc(OC)cc1C)NC(=O)c1c(F)cncc1Oc1cccc(C2CC2)c1F`
Marked response: ≥ 75%

Exam item: Now the compound `COC(=O)N(Cc1ccc(C)cc1Cl)NC(=O)c1c(C)cncc1Oc1cccc(C2CC2)c1`
Marked response: ≥ 75%

Exam item: Next compound up: `COC(=O)N(Cc1ccc(C)cc1C)NC(=O)c1c(F)cncc1Oc1cccc(C2CC2)c1F`
Marked response: ≥ 75%

Exam item: Same again, this time with `COC(=O)N(Cc1ccc(OC(F)(F)F)cc1C)NC(=O)c1cc(C)nnc1Oc1cccc(C2CC2)c1F`
Marked response: ≥ 75%

Exam item: Please give the result for `COC(=O)N(Cc1ccc(C)cc1C)NC(=O)c1c(C)cnnc1Oc1cccc(C2CC2)c1F` too.
Marked response: ≥ 75%

Exam item: Quick one: `COC(=O)N(Cc1ccc(C)cc1C)NC(=O)c1ccnnc1Oc1cccc(C2CC2)c1F`
Marked response: ≥ 75%

Exam item: Another compound: `C=Cc1cncc(Oc2cccc(C3CC3)c2F)c1C(=O)NN(Cc1ccc(C)cc1C)C(=O)OC`
Marked response: ≥ 75%

###

System: Botrytis cinerea
Assay: Control test of cucumber gray mold (sprayed young cucumber seedlings)
Type: in vivo
Settings: 96 h, 25 ppm by mass spray, four days after inoculation
Form field: pest or weed control at 25 ppm (one value per entry).

The cases that follow already have their pest or weed control at 25 ppm on record.
query_smiles=COC(=O)N(Cc1ccc(OC)cc1OC)NC(=O)c1cc(C)ncc1Oc1cccc(C2CC2)c1F quantity_measured="pest or weed control at 25 ppm" recorded_result="≥ 75%"
query_smiles=Cc1ccc(CN(NC(=O)c2cc(C)nnc2Oc2cccc(C3CC3)c2F)C(=O)OC2COC2)c(C)c1 quantity_measured="pest or weed control at 25 ppm" recorded_result="≥ 75%"

Exam item: Which pest or weed control at 25 ppm is reported for this compound? `COC(=O)N(Cc1ccc(OC)cc1C)NC(=O)c1cc(C)nnc1Oc1cccc(C2CC2)c1F`
Marked response: ≥ 75%
